Entry source: patent US9556205B2

Tested on: Pyrenophora teres
Assay: In vivo preventive test on Pyrenophora teres (barley), Example F
Conditions: 500 ppm of active ingredient, evaluated 7-9 days after inoculation
observable: Efficacy

[
  {
    "chemical-structure": "Cc1nc(C(F)F)c(C(=O)N(C[Si](C)(C)c2ccc(Cl)cc2Cl)C2CC2)s1",
    "measured": "100%"
  },
  {
    "chemical-structure": "Cn1cc(C(=O)N(C[Si](C)(C)c2ccccc2Cl)C2CC2)c(C(F)F)n1",
    "measured": "95%"
  },
  {
    "chemical-structure": "Cn1nc(C(F)F)c(C(=O)NC[Si](C)(C)c2cccc(Cl)c2)c1F",
    "measured": "100%"
  },
  {
    "chemical-structure": "Cn1nc(C(F)F)c(C(=O)N(C[Si](C)(C)c2ccsc2)C2CC2)c1F",
    "measured": "100%"
  },
  {
    "chemical-structure": "Cn1nc(C(F)F)c(C(=O)NC[Si](C)(C)c2ccccc2)c1Cl",
    "measured": "100%"
  },
  {
    "chemical-structure": "Cn1nc(C(F)F)c(C(=O)NC[Si](C)(C)c2cccc(Cl)c2)c1Cl",
    "measured": "100%"
  },
  {
    "chemical-structure": "Cn1nc(C(F)F)c(C(=O)N(C[Si](C)(C)Cc2ccc(Cl)cc2Cl)C2CC2)c1F",
    "measured": "100%"
  },
  {
    "chemical-structure": "Cn1nc(C(F)F)c(C(=O)NC[Si](C)(C)c2cc(Cl)cc(Cl)c2)c1Cl",
    "measured": "100%"
  },
  {
    "chemical-structure": "Cn1nc(C(F)F)c(C(=O)N(C[Si](C)(C)Cc2ccccc2Cl)C2CC2)c1F",
    "measured": "100%"
  },
  {
    "chemical-structure": "Cn1cc(C(=O)N(C[Si](C)(C)c2ccc(Cl)cc2Cl)C2CC2)c(C(F)F)n1",
    "measured": "100%"
  },
  {
    "chemical-structure": "Cc1nn(C)c(F)c1C(=O)N(C[Si](C)(C)c1ccccc1Cl)C1CC1",
    "measured": "100%"
  },
  {
    "chemical-structure": "Cc1nc(C(F)F)c(C(=O)N(C[Si](C)(C)c2cc(Cl)cc(Cl)c2)C2CC2)s1",
    "measured": "95%"
  },
  {
    "chemical-structure": "Cc1nc(C(F)F)c(C(=O)N(C[Si](C)(C)c2cccc(Cl)c2)C2CC2)s1",
    "measured": "95%"
  },
  {
    "chemical-structure": "Cn1nc(C(F)F)c(C(=O)N(C[Si](C)(C)Cc2ccccc2)C2CC2)c1F",
    "measured": "100%"
  },
  {
    "chemical-structure": "Cc1nn(C)c(F)c1C(=O)N(C[Si](C)(C)c1cccc(Cl)c1)C1CC1",
    "measured": "100%"
  },
  {
    "chemical-structure": "Cc1nn(C)c(F)c1C(=O)N(C[Si](C)(C)c1cc(Cl)cc(Cl)c1)C1CC1",
    "measured": "100%"
  },
  {
    "chemical-structure": "Cn1nc(C(F)F)c(C(=O)N(C[Si](C)(C)c2ccc(Cl)cc2Cl)C2CC2)c1F",
    "measured": "100%"
  }
]

---

Assay: log P by HPLC on reversed-phase column (C18), EEC Directive 79/831 Annex V.A8
Type: physicochemical
Conditions: 40° C., 0.1% aqueous formic acid and acetonitrile, linear gradient 10% to 90% acetonitrile
Item-by-item account of logP

[
  {
    "chemical-structure": "Cn1nc(C(F)F)c(C(=O)NC[Si](C)(C)c2ccc(Cl)cc2Cl)c1F",
    "logP": 4.06
  },
  {
    "chemical-structure": "Cc1nn(C)c(F)c1C(=S)N(C[Si](C)(C)c1ccccc1)C1CC1",
    "logP": 3.99
  },
  {
    "chemical-structure": "Cn1nc(C(F)F)c(C(=O)N(C[Si](C)(C)c2ccsc2)C2CC2)c1F",
    "logP": 3.55
  },
  {
    "chemical-structure": "Cn1nc(C(F)F)c(C(=O)N(C[Si](C)(C)Cc2ccccc2)C2CC2)c1F",
    "logP": 4.03
  },
  {
    "chemical-structure": "Cc1nn(C)c(F)c1C(=O)N(C[Si](C)(C)c1cc(Cl)cc(Cl)c1)C1CC1",
    "logP": 4.34
  },
  {
    "chemical-structure": "Cc1nn(C)c(F)c1C(=O)N(C[Si](C)(C)c1ccccc1Cl)C1CC1",
    "logP": 3.60
  },
  {
    "chemical-structure": "Cn1nc(C(F)F)c(C(=O)N(C[Si](C)(C)Cc2ccccc2Cl)C2CC2)c1Cl",
    "logP": 4.56
  },
  {
    "chemical-structure": "Cc1cc(C(=O)N(C[Si](C)(C)Cc2ccccc2Cl)C2CC2)c(C)o1",
    "logP": 5.08
  }
]

---

Item-by-item account of Efficacy
System: Phakopsora pachyrhizi
Assay: In vivo protective test on Phakopsora pachyrhizi (soybean rust)
Conditions: 250 ppm of active ingredient, evaluated 11 days after inoculation
observable: Efficacy

[
  {
    "molecule": "Cn1nc(C(F)F)c(C(=O)N(C[Si](C)(C)c2cc(Cl)cc(Cl)c2)C2CC2)c1F [Example 52]",
    "subject-of-test": "Phakopsora pachyrhizi",
    "observable": "Efficacy",
    "measured": "99%"
  },
  {
    "molecule": "Cn1nc(C(F)F)c(C(=O)N(C[Si](C)(C)c2ccccc2Cl)C2CC2)c1F [Example 18]",
    "subject-of-test": "Phakopsora pachyrhizi",
    "observable": "Efficacy",
    "measured": "80%"
  },
  {
    "molecule": "Cn1nc(C(F)F)c(C(=O)N(C[Si](C)(C)c2ccc(Cl)cc2Cl)C2CC2)c1F [Example 38]",
    "subject-of-test": "Phakopsora pachyrhizi",
    "observable": "Efficacy",
    "measured": "85%"
  },
  {
    "molecule": "Cn1nc(C(F)F)c(C(=O)N(C[Si](C)(C)c2cccc(Cl)c2)C2CC2)c1F [Example 31]",
    "subject-of-test": "Phakopsora pachyrhizi",
    "observable": "Efficacy",
    "measured": "100%"
  }
]

---

Experiment: log P by HPLC on reversed-phase column (C18), EEC Directive 79/831 Annex V.A8
Type: physicochemical
Settings: 40° C., 0.1% aqueous formic acid and acetonitrile, linear gradient 10% to 90% acetonitrile

[
  {
    "chemical-structure": "Cn1cc(C(=O)N(C[Si](C)(C)c2ccccc2Cl)C2CC2)c(C(F)F)n1",
    "logP": 3.73
  },
  {
    "chemical-structure": "Cc1nn(C)c(F)c1C(=O)N(C[Si](C)(C)c1cccc(Cl)c1)C1CC1",
    "logP": 3.67
  },
  {
    "chemical-structure": "Cc1nc(C(F)F)c(C(=O)N(C[Si](C)(C)c2ccccc2Cl)C2CC2)s1",
    "logP": 4.32
  },
  {
    "chemical-structure": "Cc1nc(C(F)F)c(C(=O)N(C[Si](C)(C)c2cc(Cl)cc(Cl)c2)C2CC2)s1",
    "logP": 4.92
  },
  {
    "chemical-structure": "Cn1nc(C(F)F)c(C(=O)NC[Si](C)(C)c2ccccc2)c1Cl",
    "logP": 3.31
  },
  {
    "chemical-structure": "Cn1nc(C(F)F)c(C(=O)N(C[Si](C)(C)c2ccsc2)C2CC2)c1Cl",
    "logP": 3.71
  },
  {
    "chemical-structure": "Cn1cc(C(=O)N(C[Si](C)(C)Cc2ccc(Cl)cc2Cl)C2CC2)c(C(F)F)c1",
    "logP": 5.19
  },
  {
    "chemical-structure": "Cn1nc(C(F)F)c(C(=O)NC[Si](C)(C)c2cccc(Cl)c2)c1Cl",
    "logP": 3.71
  }
]

---

Experiment: log P by HPLC on reversed-phase column (C18), EEC Directive 79/831 Annex V.A8
Format: physicochemical
Conditions: 40° C., 0.1% aqueous formic acid and acetonitrile, linear gradient 10% to 90% acetonitrile
Item-by-item account of logP
observable: logP

[
  {
    "chemical-structure": "C[Si](C)(CN(C(=O)c1ccsc1I)C1CC1)c1ccc2ccccc2c1",
    "observable": "logP",
    "measured": 5.17
  },
  {
    "chemical-structure": "Cn1nc(C(F)F)c(C(=O)N(C[Si](C)(C)Cc2cc(Cl)cc(Cl)c2)C2CC2)c1F",
    "observable": "logP",
    "measured": 4.98
  },
  {
    "chemical-structure": "Cc1cc(C(=O)N(C[Si](C)(C)c2ccccc2)C2CCCCC2)c(C)o1",
    "observable": "logP",
    "measured": 5.62
  },
  {
    "chemical-structure": "CCc1nn(C)c(F)c1C(=S)N(C[Si](C)(C)c1ccccc1)C1CC1",
    "observable": "logP",
    "measured": 4.41
  },
  {
    "chemical-structure": "Cn1nc(C(F)F)c(C(=O)N(C[Si](C)(C)Cc2cccc(Cl)c2)C2CC2)c1Cl",
    "observable": "logP",
    "measured": 4.59
  },
  {
    "chemical-structure": "Cn1nc(C(F)F)c(C(=O)N(C[Si](C)(C)c2cccc(Cl)c2)C2CC2)c1F",
    "observable": "logP",
    "measured": 4.18
  },
  {
    "chemical-structure": "Cn1nc(C(F)F)c(C(=O)N(C[Si](C)(C)c2ccccc2Cl)C2CC2)c1F",
    "observable": "logP",
    "measured": 4.13
  },
  {
    "chemical-structure": "Cn1nc(C(F)F)c(C(=O)N(C[Si](C)(C)c2ccc3ccccc3c2)C2CC2)c1F",
    "observable": "logP",
    "measured": 4.36
  },
  {
    "chemical-structure": "Cn1nc(C(F)F)c(C(=O)NC[Si](C)(C)c2cc(Cl)cc(Cl)c2)c1Cl",
    "observable": "logP",
    "measured": 4.27
  },
  {
    "chemical-structure": "Cn1nc(C(F)F)c(C(=S)N(C[Si](C)(C)Cc2ccccc2Cl)C2CC2)c1F",
    "observable": "logP",
    "measured": 5.00
  },
  {
    "chemical-structure": "Cn1nc(C(F)F)c(C(=O)N(C[Si](C)(C)c2ccccc2)C2CCCCC2)c1F",
    "observable": "logP",
    "measured": 4.86
  },
  {
    "chemical-structure": "Cn1nc(C(F)F)c(C(=O)NC[Si](C)(C)c2cc(Cl)cc(Cl)c2)c1F",
    "observable": "logP",
    "measured": 4.08
  },
  {
    "chemical-structure": "Cc1cc(C(=O)NC[Si](C)(C)c2cccc(Cl)c2)c(C)o1",
    "observable": "logP",
    "measured": 3.92
  },
  {
    "chemical-structure": "Cc1cc(C(=O)N(C[Si](C)(C)c2cc(Cl)cc(Cl)c2)C2CC2)c(C)o1",
    "observable": "logP",
    "measured": 5.51
  },
  {
    "chemical-structure": "Cc1cc(C(=O)N(C[Si](C)(C)Cc2ccccc2)C2CC2)c(C)o1",
    "observable": "logP",
    "measured": 4.67
  },
  {
    "chemical-structure": "Cc1cc(C(=O)NC[Si](C)(C)c2ccccc2Cl)c(C)o1",
    "observable": "logP",
    "measured": 3.85
  },
  {
    "chemical-structure": "CCc1nn(C)c(F)c1C(=O)N(C[Si](C)(C)c1ccc(Cl)cc1Cl)C1CC1",
    "observable": "logP",
    "measured": 4.78
  }
]
